In this section, each of the proteins is paired with its reported Enzyme Activity Endpoint Assay (purified): Fab′2.
Target: pooled human IgG
Use ng/µL as the unit, but write only the number.

{"protein": "PRT-78 (protein) MANQEIRYSEETPYHVTSVWTKGVTPPADFTQGEDVFHAPYVANQGWYDITKTFNGKDDLLCGAATAGNMLHWWFDQNKEYIEAYLKKHPEKQKIMFGDQELLDVRKAINTKGSQKNSELFNYFRDKAFPNLSARRLGVMPDLVLDMFINGYYLNVTKTQTTDVNRTYQEKDKRGGIFDAVFTRGDQSKLLTSRHDFKEKGLKEISDLIKQELTEGKALGLSHTYANVRINHVINLWGADFDSDGNLKAIYVTDSDSNASIGMKKYFVGVNSAGKVAISAKEIKEDNIGAQVLGLFTLSTGQDIWNQTN", "measured number": 34}

The record that follows has no Enzyme Activity Endpoint Assay (purified): Fab′2 shown yet.
Prompt line: Recorded Enzyme Activity Endpoint Assay (purified): Fab′2 for PRT-608 (protein) MQITSVWTKGVTPLTPEQFRYNNEDVIHAPYLAHQGWYDITKAFDGKDNLLCGAATAGNMLHWWFDQNKTEIEAYLSKHPEKQKIIFNNQELFDLKAAIDTKDSQTNSQLFNYFRDKAFPNLSARQLGVMPDLVLDMFINGYYLNVFKTQSTDVNRPYQDKDKRGGIFDAVFTRGDQTTLLTARHDLKNKGLNDISTIIKQELTEGRALALSHTYANVSISHVINLWGADFNAEGNLEAIYVTDSDADEKIGMKKYFVGINAHGHVAISAKKIEGENIGAQVLGLFTLSSGKDIWQKLSLEHHHHHH , please?
Response line: 863
